Conditions: in ethyl acetate, 308.15 K
QUANTITY NAME: solubility (mole fraction)

SMILES REPR	RESULT
O=C(O)c1ccc(Cl)cc1Cl	0.0537

###

Details: in n-butanol, 278.15 K
QUANTITY NAME: solubility (mole fraction)

SMILES REPR	RESULT
O=C(O)c1ccc(Cl)cc1Cl	0.0418

###

Details: in acetone, 303.15 K
QUANTITY NAME: solubility (mole fraction)

SMILES REPR	QUANTITATIVE RESULT
O=C(O)c1ccc(Cl)cc1Cl	0.0585

###

Settings: in n-butanol, 298.15 K

SMILES REPR	solubility (mole fraction)
O=C(O)c1ccc(Cl)cc1Cl	0.0616
